# study system: ACE2 (human, UniProt Q9BYF1 18-740)
# Sequence (Q9BYF1 18-740 limits assumed): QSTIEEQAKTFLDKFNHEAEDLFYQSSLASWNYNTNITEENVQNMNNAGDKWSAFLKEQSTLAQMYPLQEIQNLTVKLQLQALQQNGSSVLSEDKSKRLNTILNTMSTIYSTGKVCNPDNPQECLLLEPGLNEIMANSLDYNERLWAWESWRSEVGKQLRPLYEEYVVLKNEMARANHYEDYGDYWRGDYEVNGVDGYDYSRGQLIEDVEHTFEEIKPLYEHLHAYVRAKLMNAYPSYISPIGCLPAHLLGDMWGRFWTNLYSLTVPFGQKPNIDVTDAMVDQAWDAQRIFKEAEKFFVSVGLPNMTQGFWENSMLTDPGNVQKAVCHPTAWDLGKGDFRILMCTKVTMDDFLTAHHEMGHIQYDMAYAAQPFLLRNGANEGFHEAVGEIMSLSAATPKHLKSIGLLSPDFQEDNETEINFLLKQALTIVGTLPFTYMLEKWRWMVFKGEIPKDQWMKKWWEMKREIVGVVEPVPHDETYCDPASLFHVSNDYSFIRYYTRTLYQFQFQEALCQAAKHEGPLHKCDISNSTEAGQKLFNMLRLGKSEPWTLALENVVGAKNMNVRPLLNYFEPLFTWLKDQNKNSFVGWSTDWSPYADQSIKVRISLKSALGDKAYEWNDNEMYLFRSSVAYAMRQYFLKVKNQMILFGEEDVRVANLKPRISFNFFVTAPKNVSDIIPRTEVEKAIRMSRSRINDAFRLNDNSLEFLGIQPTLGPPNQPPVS
attribute measured: koff (s⁻¹)
Output spec: scalar in s⁻¹, unitless text.

Reported koff of ACE2 variant antibody 4-64 (VHH) VHH: EVQLVESGGGLVQPGGSLRLSCAASGRTFGDYIMGWFRQAPGKERESVAAINWSAGYTAYADSVKGRFTISADNSKNTAYLQMNSLKPEDTAVYYCATASPNTGWHFDHWGQGTLVTVSS : 0.0007

Reported koff of ACE2 variant antibody 3-13 (antibody, V domains shown) VH: EVQLLESGGGLVQPGGSLRLSCAASGFTITNYAMSWVRQAPGKGLEWVSGISGSGAGTYYADSVKGRFTISRDNSKNTLYLQMNSLRAEDTAVYYCARHTWWKGAGFFDHWGQGTLVTVSS VL: DIQMTQSPSSLSASVGDRVTITCRASQSIGRYLNWYQQKPGKAPKLLIYAASSLKSGVPSRFSGSGSGTDFTLTISSLQPEDFATYYCQQSYSLPRTFGQGTKVEIK : 0.0102
